From: patent US12116358B2

Target: SETD2(1434-1711) (Homo sapiens)
Construct: SETD2 (1434-1711) Assay; catalogue N/A
Sequence (Q9BYW2 1434-1711): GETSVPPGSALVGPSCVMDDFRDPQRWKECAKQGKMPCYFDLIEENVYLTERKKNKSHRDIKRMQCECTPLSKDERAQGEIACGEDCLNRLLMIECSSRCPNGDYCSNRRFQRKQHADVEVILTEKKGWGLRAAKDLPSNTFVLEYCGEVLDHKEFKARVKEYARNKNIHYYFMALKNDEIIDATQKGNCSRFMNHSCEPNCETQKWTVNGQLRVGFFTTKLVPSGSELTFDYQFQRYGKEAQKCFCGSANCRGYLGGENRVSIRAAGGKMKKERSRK
Experiment: SETD2 (1434-1711) assay
Assay type: biochemical
Conditions: read-out: SETD2 (1434-1711)
measured.endpoint: IC50

Below, 2 compounds whose answers are already recorded.
[[record]]
compound = "Cc1cc(CC(=O)O)cnc1C(NC(=O)c1cc2c(F)ccc(C)c2[nH]1)C1CC1 (centres unmarked)"
result = "2400 nM"

[[record]]
compound = "Cc1nonc1CNC(=O)c1cc2cccc(C)c2[nH]1"
result = "137000 nM"


Could you now consider this next compound?
[in] Need IC50, item "Cc1cccc2cc(C(=O)N[C@H]3CC[C@@](C)(NC(=O)CCN)CC3)[nH]c12"
[out] 18500 nM
